- System Tested: hERG (KCNH2) potassium channel (Homo sapiens)
- Sequence (Q12809 whole entry): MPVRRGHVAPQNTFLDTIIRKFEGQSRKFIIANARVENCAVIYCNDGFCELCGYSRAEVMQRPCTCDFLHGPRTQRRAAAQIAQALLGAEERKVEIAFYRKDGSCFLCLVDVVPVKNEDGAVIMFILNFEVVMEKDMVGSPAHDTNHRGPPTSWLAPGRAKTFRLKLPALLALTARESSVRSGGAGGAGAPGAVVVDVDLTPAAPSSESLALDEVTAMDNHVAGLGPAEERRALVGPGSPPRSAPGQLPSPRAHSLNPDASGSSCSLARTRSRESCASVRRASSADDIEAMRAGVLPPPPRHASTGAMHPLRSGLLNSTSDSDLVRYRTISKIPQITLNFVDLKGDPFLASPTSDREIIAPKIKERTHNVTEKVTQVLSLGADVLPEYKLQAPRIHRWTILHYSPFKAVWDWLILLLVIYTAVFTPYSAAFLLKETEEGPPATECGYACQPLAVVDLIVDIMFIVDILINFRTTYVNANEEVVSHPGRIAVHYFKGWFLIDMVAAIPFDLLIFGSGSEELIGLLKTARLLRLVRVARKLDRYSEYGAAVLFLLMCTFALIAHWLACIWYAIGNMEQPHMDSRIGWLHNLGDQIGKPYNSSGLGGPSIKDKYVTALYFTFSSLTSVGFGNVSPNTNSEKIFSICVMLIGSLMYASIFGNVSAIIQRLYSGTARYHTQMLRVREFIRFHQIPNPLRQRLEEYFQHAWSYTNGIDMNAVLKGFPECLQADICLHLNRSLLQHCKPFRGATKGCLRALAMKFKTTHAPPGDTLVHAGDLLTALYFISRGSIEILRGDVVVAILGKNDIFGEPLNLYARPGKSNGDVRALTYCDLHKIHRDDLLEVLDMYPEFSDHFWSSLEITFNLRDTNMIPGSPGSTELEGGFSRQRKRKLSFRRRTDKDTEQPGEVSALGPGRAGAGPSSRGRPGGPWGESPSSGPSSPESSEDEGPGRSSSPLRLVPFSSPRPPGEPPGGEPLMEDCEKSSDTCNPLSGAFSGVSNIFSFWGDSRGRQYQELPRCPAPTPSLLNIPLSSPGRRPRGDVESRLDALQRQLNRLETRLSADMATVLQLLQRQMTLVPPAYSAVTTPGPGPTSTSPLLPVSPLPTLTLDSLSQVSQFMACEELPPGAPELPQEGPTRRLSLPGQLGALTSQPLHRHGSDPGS
- Test Method Notes: Inhibition of Potassium Channel hERG at 10 µM in the Eurofins-Panlabs radioligand binding assay (Eurofins_assay_265900)
- Set-up: ligand concentration 1.5 nM, non-specific ligand with concentration Astemizole, incubation time 60 min, incubation temperature 25 °C
- Assay Context: HEK-293 cells expressing human recombinant hERG, probe [3H] Astemizole, 1.5 nM, compound concentration 10 uM
Property Name: inhibition at 60 min, 10 µM

Param request: inhibition at 60 min, 10 µM | system hERG (KCNH2) potassium channel (Homo sapiens) | item O=C(O)c1cc(-c2ccc(C3CCNCC3)cc2)c2ccc(-c3ccc(C(F)(F)F)cc3)cc2c1
-6% (not active)

---

- System Tested: Alpha-2C adrenergic receptor (Homo sapiens, UniProt P18825)
- Sequence (P18825 whole entry): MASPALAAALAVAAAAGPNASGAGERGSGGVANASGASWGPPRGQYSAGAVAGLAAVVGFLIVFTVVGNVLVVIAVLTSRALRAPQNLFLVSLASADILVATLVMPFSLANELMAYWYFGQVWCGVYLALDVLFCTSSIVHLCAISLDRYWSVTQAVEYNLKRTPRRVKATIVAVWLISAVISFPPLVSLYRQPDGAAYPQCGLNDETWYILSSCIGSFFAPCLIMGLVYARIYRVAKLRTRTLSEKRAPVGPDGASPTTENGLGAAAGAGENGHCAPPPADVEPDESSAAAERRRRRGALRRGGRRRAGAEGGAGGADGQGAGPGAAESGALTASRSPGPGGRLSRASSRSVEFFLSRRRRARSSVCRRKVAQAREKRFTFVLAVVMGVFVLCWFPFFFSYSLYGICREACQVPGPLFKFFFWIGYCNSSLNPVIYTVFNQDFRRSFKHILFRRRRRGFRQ
- Test Method Notes: Adrenergic alpha2C Eurofins-Panlabs radioligand binding assay
- Design: ligand concentration 1 nM, non-specific ligand with concentration 10 µM WB-4101, incubation time 60 min, incubation temperature 25 °C
Property Name: pKi
In textbook form, pKi equals minus log to base ten of the concentration in mol/L.

Please indicate pKi recorded for O=C(O)c1cc(-c2ccc(C3CCNCC3)cc2)c2ccc(-c3ccc(C(F)(F)F)cc3)cc2c1
6.00

---

- System Tested: Sodium-dependent serotonin transporter (Homo sapiens)
- Sequence (P31645 whole entry): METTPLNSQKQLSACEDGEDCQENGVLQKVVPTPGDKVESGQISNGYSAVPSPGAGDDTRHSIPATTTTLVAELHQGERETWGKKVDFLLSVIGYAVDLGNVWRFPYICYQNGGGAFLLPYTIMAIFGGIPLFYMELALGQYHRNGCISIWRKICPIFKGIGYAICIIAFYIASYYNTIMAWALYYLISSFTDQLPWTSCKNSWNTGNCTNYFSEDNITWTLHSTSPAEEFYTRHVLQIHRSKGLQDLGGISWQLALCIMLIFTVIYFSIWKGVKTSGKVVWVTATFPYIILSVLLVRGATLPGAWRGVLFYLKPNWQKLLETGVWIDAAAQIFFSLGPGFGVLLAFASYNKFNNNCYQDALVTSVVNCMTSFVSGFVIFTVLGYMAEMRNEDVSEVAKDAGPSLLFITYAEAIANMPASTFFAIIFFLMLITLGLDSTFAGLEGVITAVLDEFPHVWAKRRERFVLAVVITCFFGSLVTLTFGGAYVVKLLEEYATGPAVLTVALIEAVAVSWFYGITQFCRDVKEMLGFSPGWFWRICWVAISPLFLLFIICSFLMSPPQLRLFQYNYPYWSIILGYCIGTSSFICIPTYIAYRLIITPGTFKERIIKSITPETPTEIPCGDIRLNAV
Property Name: Ki (µM)
Answer format: numeric, µM implied, no suffix.

Please indicate Ki recorded for O=C(O)c1cc(-c2ccc(C3CCNCC3)cc2)c2ccc(-c3ccc(C(F)(F)F)cc3)cc2c1
5.03

---

- System Tested: Epidermal growth factor receptor (Homo sapiens)
- Sequence (P00533 whole entry): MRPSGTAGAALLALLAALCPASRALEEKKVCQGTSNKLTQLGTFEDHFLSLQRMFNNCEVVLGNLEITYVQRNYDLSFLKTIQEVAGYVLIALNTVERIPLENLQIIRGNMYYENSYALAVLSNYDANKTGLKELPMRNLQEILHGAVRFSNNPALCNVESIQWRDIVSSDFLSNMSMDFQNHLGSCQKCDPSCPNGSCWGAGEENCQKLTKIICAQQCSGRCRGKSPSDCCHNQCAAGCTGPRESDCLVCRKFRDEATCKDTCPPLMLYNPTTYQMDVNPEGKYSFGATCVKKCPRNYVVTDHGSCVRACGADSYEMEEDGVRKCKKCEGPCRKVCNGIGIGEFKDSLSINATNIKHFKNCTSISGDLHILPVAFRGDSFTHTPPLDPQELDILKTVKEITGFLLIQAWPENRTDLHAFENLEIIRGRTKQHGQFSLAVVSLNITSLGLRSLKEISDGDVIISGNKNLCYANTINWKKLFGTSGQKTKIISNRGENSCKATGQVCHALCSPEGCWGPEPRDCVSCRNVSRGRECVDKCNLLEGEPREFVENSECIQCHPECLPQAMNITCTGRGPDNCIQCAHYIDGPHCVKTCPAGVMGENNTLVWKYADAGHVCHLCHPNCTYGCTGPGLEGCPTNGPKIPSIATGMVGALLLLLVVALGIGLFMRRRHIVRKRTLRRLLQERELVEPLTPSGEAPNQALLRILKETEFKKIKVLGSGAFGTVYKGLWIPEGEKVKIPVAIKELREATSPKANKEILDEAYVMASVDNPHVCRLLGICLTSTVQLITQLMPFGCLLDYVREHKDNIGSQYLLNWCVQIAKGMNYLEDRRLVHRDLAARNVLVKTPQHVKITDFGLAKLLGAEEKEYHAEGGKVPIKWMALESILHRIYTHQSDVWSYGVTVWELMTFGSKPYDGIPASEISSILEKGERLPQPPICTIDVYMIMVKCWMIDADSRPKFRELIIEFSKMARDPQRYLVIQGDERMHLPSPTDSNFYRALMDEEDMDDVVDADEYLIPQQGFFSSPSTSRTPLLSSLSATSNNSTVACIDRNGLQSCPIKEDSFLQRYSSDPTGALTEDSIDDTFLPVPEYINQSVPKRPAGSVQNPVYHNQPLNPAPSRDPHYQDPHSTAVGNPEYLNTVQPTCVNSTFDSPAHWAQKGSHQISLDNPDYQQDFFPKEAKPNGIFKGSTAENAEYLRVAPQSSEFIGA
Property Name: pIC50
In textbook form, pIC50 equals minus log to base ten of the concentration in mol/L.

Param request: pIC50 | system Epidermal growth factor receptor (Homo sapiens) | item O=C(O)c1cc(-c2ccc(C3CCNCC3)cc2)c2ccc(-c3ccc(C(F)(F)F)cc3)cc2c1
5.34

---

We begin with a simple list: items and their reported pKi.
- System Tested: Sigma intracellular receptor 2 (Homo sapiens, UniProt Q5BJF2)
- Sequence (Q5BJF2 whole entry): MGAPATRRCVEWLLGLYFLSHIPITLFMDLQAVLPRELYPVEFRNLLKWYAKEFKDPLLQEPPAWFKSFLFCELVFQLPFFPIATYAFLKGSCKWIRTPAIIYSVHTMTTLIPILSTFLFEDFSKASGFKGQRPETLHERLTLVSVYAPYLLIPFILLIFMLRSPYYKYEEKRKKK
- Test Method Notes: GPCRScan assay: inhibition of Sigma 2
In textbook form, pKi equals minus log to base ten of the concentration in mol/L.

# Molecule Smiles, Property Name, Test Value
rows = [
    ("Cc1c(C(=O)O)cc(-c2ccc(C3CCNCC3)cc2)c2ccc(-c3ccc(C(F)(F)F)cc3)cc12", "pKi", 5.77),
]

Please indicate pKi recorded for O=C(O)c1cc(-c2ccc(C3CCNCC3)cc2)c2ccc(-c3ccc(C(F)(F)F)cc3)cc2c1
5.95

---

- Test Method Notes: Prostanoid, Thromboxane A2 (TP) Eurofins-Panlabs radioligand binding assay
- Parameters: species or system Homo sapiens; ligand concentration 5 nM, non-specific ligand with concentration 1 µM SQ-29548, incubation time 30 min, incubation temperature 25 °C
Property Name: IC50 (µM)
Answer format: numeric, µM implied, no suffix.

Please indicate IC50 recorded for O=C(O)c1cc(-c2ccc(C3CCNCC3)cc2)c2ccc(-c3ccc(C(F)(F)F)cc3)cc2c1 [PPTN]
9.5

---

- System Tested: Beta-3 adrenergic receptor (Homo sapiens)
- Sequence (P13945 whole entry): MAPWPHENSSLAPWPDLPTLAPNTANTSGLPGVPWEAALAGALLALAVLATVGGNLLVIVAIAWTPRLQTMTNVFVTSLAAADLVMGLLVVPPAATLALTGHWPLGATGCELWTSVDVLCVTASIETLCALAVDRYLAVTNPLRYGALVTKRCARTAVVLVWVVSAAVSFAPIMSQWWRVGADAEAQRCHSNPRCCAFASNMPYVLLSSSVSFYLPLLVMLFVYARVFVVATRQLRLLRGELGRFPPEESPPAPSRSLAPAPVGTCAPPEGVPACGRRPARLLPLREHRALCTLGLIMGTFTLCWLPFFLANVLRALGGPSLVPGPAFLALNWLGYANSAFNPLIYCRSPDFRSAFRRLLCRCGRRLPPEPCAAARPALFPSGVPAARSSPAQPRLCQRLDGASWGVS
Property Name: pIC50
In textbook form, pIC50 equals minus log to base ten of the concentration in mol/L.

Param request: pIC50 | system Beta-3 adrenergic receptor (Homo sapiens) | item O=C(O)c1cc(-c2ccc(C3CCNCC3)cc2)c2ccc(-c3ccc(C(F)(F)F)cc3)cc2c1
5.02
